The values you see were collected from patent US20150086555A1.

Target: recombinant soluble homotrimeric HA, A/Anhui/1/05 H5N1 (Influenza A virus A/Anhui/1/2005(H5N1))
Assay: microarray, transfection SN IgG, trimeric HA
Settings: remark: other sources report otherwise
ENDPOINT NAME: Trimeric HA Binding: RLU (RLU)
Your answer is read as RLU, so omit the unit and give the number.

What measured Trimeric HA Binding: RLU goes with TCN-550 (5096_F06) (antibody, V domains shown) VH: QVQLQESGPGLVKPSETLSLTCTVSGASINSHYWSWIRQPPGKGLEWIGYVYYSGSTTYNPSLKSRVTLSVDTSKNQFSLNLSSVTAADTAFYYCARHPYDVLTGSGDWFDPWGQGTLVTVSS VL: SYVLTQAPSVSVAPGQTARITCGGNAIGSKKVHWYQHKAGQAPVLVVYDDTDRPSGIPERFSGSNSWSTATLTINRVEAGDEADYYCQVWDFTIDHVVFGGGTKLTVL ?
7680

What measured Trimeric HA Binding: RLU goes with TCN-557 (5081_A04) (antibody, V domains shown) VH: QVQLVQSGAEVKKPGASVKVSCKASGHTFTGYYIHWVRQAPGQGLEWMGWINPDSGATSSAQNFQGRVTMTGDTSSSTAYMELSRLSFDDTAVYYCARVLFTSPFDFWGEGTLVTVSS VL: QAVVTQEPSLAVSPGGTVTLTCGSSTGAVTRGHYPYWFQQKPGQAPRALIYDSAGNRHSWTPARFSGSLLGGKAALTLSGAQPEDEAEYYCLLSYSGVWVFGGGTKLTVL ?
20000

What measured Trimeric HA Binding: RLU goes with TCN-553 (5261_C18) (antibody, V domains shown) VH: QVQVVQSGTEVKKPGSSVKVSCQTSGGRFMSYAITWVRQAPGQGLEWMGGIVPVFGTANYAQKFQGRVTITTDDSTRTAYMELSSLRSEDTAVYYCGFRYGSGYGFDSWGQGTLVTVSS VL: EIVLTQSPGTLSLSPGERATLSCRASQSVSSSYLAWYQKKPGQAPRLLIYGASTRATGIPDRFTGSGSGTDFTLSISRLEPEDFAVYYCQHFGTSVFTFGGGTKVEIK ?
8550

What measured Trimeric HA Binding: RLU goes with TCN-551 (5243_D01) (antibody, V domains shown) VH: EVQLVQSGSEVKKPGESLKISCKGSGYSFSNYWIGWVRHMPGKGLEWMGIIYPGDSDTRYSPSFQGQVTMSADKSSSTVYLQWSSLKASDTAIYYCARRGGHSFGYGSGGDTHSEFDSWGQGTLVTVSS VL: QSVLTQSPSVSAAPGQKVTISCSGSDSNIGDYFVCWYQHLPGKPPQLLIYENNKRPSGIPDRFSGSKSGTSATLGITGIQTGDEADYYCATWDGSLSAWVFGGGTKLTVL ?
2640

What measured Trimeric HA Binding: RLU goes with TCN-552 (5249_I23) (antibody, V domains shown) VH: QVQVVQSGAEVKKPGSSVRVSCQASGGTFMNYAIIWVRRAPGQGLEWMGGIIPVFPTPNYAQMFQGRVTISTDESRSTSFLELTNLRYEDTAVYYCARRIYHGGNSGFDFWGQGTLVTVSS VL: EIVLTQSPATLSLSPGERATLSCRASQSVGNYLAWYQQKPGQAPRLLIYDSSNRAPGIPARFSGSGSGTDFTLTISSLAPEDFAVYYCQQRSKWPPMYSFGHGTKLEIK ?
9010
